TEST NAME: in vitro
CONDITION CONTEXT: human, HepG2 cells; n = 1
READOUT: CC50 at 48 h (µM)

{"COMPOUND": "CN(C)CCNC(=O)c1nc2nc(-c3ccccc3)c(-c3cccc(F)c3)cc2n1C", "OBSERVED MEASUREMENT": 31.4}
{"COMPOUND": "Cn1c(/N=N/c2ccccc2)nc2ccccc21", "OBSERVED MEASUREMENT": 12.2}
{"COMPOUND": "O=C(NCC1CC1)c1nc2c(o1)CCN(Cc1cccc(F)c1)CC2", "OBSERVED MEASUREMENT": 44.4}
{"COMPOUND": "COc1ccc(Nc2nc(N3CCCCC3)c3ccccc3n2)cc1", "OBSERVED MEASUREMENT": 30.6}
{"COMPOUND": "CC(C)OCc1cc(CN2CCN(c3cccc(C(F)(F)F)c3)CC2)c(O)c2ncccc12", "OBSERVED MEASUREMENT": 10.9}
{"COMPOUND": "Cc1sc(NC(=O)c2ccco2)c(C(c2cccnc2)N2CCC(C)CC2)c1C (stereo not drawn)", "OBSERVED MEASUREMENT": 8.62}
{"COMPOUND": "COc1cc(OC)cc(C(=O)Oc2c(CN3CCOCC3)cc(Cl)c3cccnc23)c1", "OBSERVED MEASUREMENT": 12.2}
{"COMPOUND": "Oc1ccccc1C(Nc1nccs1)c1ccc2cccnc2c1O (stereo not drawn)", "OBSERVED MEASUREMENT": 19.3}
{"COMPOUND": "CCOC(=O)C1=C(c2ccccc2)N=C(N)NC1c1ccc(OCc2ccc(Cl)cc2)c(OC)c1 (stereo not drawn)", "OBSERVED MEASUREMENT": 34.3}
{"COMPOUND": "COC1=CC=CC(=CNNc2cc(N3CCOCC3)ncn2)C1=O", "OBSERVED MEASUREMENT": 12.2}
{"COMPOUND": "CCNc1nc2c(c(=O)n(C)c(=O)n2C)n1Cc1ccc(F)cc1", "OBSERVED MEASUREMENT": 21.7}
{"COMPOUND": "O=C(N/N=C(/c1ccccc1)c1cccnc1)c1cccc(F)c1", "OBSERVED MEASUREMENT": 12.2}
{"COMPOUND": "c1ccc(CNc2nc(-c3ccccn3)nc3ccccc23)cc1", "OBSERVED MEASUREMENT": 10.9}
{"COMPOUND": "O=C1C=CC(Br)=CC1=CNNC(=O)c1ccncc1", "OBSERVED MEASUREMENT": 12.2}
{"COMPOUND": "O=C(Nc1nc(-c2ccccn2)cs1)c1cccc(S(=O)(=O)N2CCOCC2)c1", "OBSERVED MEASUREMENT": 9.68}
{"COMPOUND": "O=C(Oc1c(CN2CCOCC2)cc(Cl)c2cccnc12)c1ccccc1Br", "OBSERVED MEASUREMENT": 19.3}
{"COMPOUND": "O=C1c2cc(F)ccc2-n2c1nc1ccccc1c2=O", "OBSERVED MEASUREMENT": 12.2}
{"COMPOUND": "COc1ccccc1N1CCN(C[C@@H]2C=C(C)[C@H](Cc3nnc(-c4cncn4C)o3)C[C@H]2C(C)C)CC1", "OBSERVED MEASUREMENT": 24.3}

// data source = paper PMC7822874
